experimental-details: Agonist activation of human dopamine receptor stimulating mitogenesis in Dopamine receptor D4-transfected CHO pro-5 cells using [3H]thymidine as radioligand
In plain terms, low EC50, meaning strictly below 20 nM, gives T, and everything else gives F.

Req: Does COc1ccccc1N1CCN(CNC(=O)c2cccc(Cl)c2)CC1 have EC50 strictly under 20 nM?
Resp: T

Req: Does COc1ccccc1N1CCN(CNC(=O)c2ccccc2)CC1 have EC50 strictly under 20 nM?
Resp: F

Req: Does Cc1ccc(C(=O)NCN2CCN(c3ccccc3Cl)CC2)cc1 have EC50 strictly under 20 nM?
Resp: F

Req: Does O=C(NCN1CCN(c2ccccc2Cl)CC1)c1ccccc1 have EC50 strictly under 20 nM?
Resp: F

Req: Does COc1ccccc1N1CCN(CNC(=O)c2ccc(C)cc2)CC1 have EC50 strictly under 20 nM?
Resp: T

Req: Does Cc1ccc(C(=O)NCN2CCN(c3ccccc3C#N)CC2)cc1 have EC50 strictly under 20 nM?
Resp: T

Req: Does COc1ccccc1N1CCN(CNC(=O)c2cccc(C)c2)CC1 have EC50 strictly under 20 nM?
Resp: T

Req: Does N#Cc1ccccc1N1CCN(CNC(=O)c2ccccc2)CC1 have EC50 strictly under 20 nM?
Resp: F

Req: Does Cc1cccc(C(=O)NCN2CCN(c3ccccc3Cl)CC2)c1 have EC50 strictly under 20 nM?
Resp: T

Req: Does N#Cc1ccccc1N1CCN(CNC(=O)c2cccc(Cl)c2)CC1 have EC50 strictly under 20 nM?
Resp: T

Req: Does O=C(NCN1CCN(c2ccccc2Cl)CC1)c1ccc(Cl)cc1 have EC50 strictly under 20 nM?
Resp: T

Req: Does COc1ccccc1N1CCN(CNC(=O)c2ccc(Cl)cc2)CC1 have EC50 strictly under 20 nM?
Resp: T
